- System: human APOE RNA
- assayComment: Dose-dependent inhibition of human APOE RNA in HepG2 cells, electroporation, 50,000 cells per well, RT-PCR normalized to GAPDH (Example 4, Tables 8-10)
- Type: cell-based
- testSettings: 1,280 nM; HepG2, electroporation, 16-hour treatment
Strand notation (5' to 3'): a small letter for the sugar, then the base; units joined by * are phosphorothioate-linked, units joined directly phosphodiester-linked; [ ] holds rarer units or linkages, { } end groups; capitals alone tell only the bases. [ms] = mesyl phosphoramidate linkage; e = 2'-O-(2-methoxyethyl) (MOE); k = constrained ethyl (cEt); [5mC] = 5-methylcytosine; d = 2'-deoxy (DNA)
assayMetric: APOE RNA (% UTC)
Entry rule: numbers only, all in % UTC.

>  <substance>
1757557: mixed MOE/cEt gapmer TTGGTGAATCTTTATTAA, sugar eeeeeddddddddeekke, linkages soossssssssssooss (eT*eTeGeG*eT*dG*dA*dA*dT*d[5mC]*dT*dT*dT*eAeTkT*kA*eA) [compound 1757557]

>  <readingUnit>
% UTC

>  <APOE RNA (% UTC)>
94

$$$$

[Q] I'd like to know its APOE RNA (% UTC). The substance in question is 1757574 (eA*e[5mC]eTeT*eG*eG*dT*dG[ms]dA[ms]dA[ms]dT*d[5mC]*dT*dT*dT*dA[ms]kT*kT*eA*eA; antisense) [Compound 1757574]
[A] 47

[Q] I'd like to know its APOE RNA (% UTC). The substance in question is 1757572 (eA*e[5mC]eTeT*kG*kG*dT*dG[ms]dA[ms]dA[ms]dT*d[5mC]*dT*dT*dT*dA[ms]eT*eT*eA*eA; antisense) [Compound 1757572]
[A] 66

[Q] I'd like to know its APOE RNA (% UTC). The substance in question is 1757568 (eA*e[5mC]eTeTeG*dG*dT*dG*dA*dA*dT*d[5mC]*dT*dT*dT*kAkTeT*eA*eA; antisense) [Compound 1757568]
[A] 47

[Q] I'd like to know its APOE RNA (% UTC). The substance in question is 1757551: mixed MOE/cEt gapmer TTGGTGAATCTTTATTAA, sugar eeekkddddddddeeeee, linkages soossssssssssooss (eT*eTeGkG*kT*dG*dA*dA*dT*d[5mC]*dT*dT*dT*eAeTeT*eA*eA) [compound 1757551]
[A] 35

[Q] I'd like to know its APOE RNA (% UTC). The substance in question is 1757554: mixed MOE/cEt gapmer TTGGTGAATCTTTATTAA, sugar kkeeeddddddddeeeee, linkages soossssssssssooss (kT*kTeGeG*eT*dG*dA*dA*dT*d[5mC]*dT*dT*dT*eAeTeT*eA*eA) [compound 1757554]
[A] 52

[Q] I'd like to know its APOE RNA (% UTC). The substance in question is 1766537 (eT*eTeGeGeT*dG[ms]dA[ms]dA[ms]dT*d[5mC]*dT*dT*dT[ms]dA*dT*kTkAeA*eA*e[5mC]; antisense) [Compound 1766537]
[A] 62

[Q] I'd like to know its APOE RNA (% UTC). The substance in question is 1757564: mixed MOE/cEt gapmer TTGGTGAATCTTTATTAA, sugar eeeekddddddddkeeke, linkages soossssssssssooss (eT*eTeGeG*kT*dG*dA*dA*dT*d[5mC]*dT*dT*dT*kAeTeT*kA*eA) [compound 1757564]
[A] 62

[Q] I'd like to know its APOE RNA (% UTC). The substance in question is 1757562: mixed MOE/cEt gapmer TTGGTGAATCTTTATTAA, sugar eeeekddddddddkkeee, linkages soossssssssssooss (eT*eTeGeG*kT*dG*dA*dA*dT*d[5mC]*dT*dT*dT*kAkTeT*eA*eA) [compound 1757562]
[A] 40

----------
- Tested on: human APOE RNA
- assayComment: Activity in APOE C57BL/6NTac-Apoeem7250 knock-in mice, single ICV bolus, 8 weeks (Example 11)
- Assay type: in vivo
- testSettings: spinal cord; single ICV bolus 300 μg; 8 weeks post treatment; normalized to mouse Ppia
Strand notation (5' to 3'): a small letter for the sugar, then the base; units joined by * are phosphorothioate-linked, units joined directly phosphodiester-linked; [ ] holds rarer units or linkages, { } end groups; capitals alone tell only the bases. [ms] = mesyl phosphoramidate linkage; e = 2'-O-(2-methoxyethyl) (MOE); k = constrained ethyl (cEt); [5mC] = 5-methylcytosine; d = 2'-deoxy (DNA)
Mark yes for APOE RNA (% control) Spinal Cord under 30 % control, no if at or over.

>  <substance>
1757571 (eA*e[5mC]eTeT*eG*kG*dT*dG[ms]dA[ms]dA[ms]dT*d[5mC]*dT*dT*dT*dA[ms]eT*eT*eA*eA; antisense) [Compound 1757571]

>  <classLabel>
no

$$$$
>  <substance>
1693144: 6-10-4 MOE gapmer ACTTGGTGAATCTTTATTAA, linkages soosssszzzssssszsss (eA*e[5mC]eTeT*eG*eG*dT*dG[ms]dA[ms]dA[ms]dT*d[5mC]*dT*dT*dT*dA[ms]eT*eT*eA*eA) [compound 1693144]

>  <classLabel>
no

$$$$
>  <substance>
1785619 (k[5mC]*dT[ms]dT[ms]kG*dG[ms]kT*dG*dA[ms]dA[ms]dT*d[5mC]*dT*dT*dT*dA[ms]dT*kT*kA*dA[ms]kA) [Compound 1785619]

>  <classLabel>
yes

$$$$

[Q] Does the reported APOE RNA (% control) Spinal Cord of the following substance sit strictly below 30 % control? 1809637 (kA*e[5mC]eTeT*eG*kG*dT*dG[ms]dA[ms]dA[ms]dT*d[5mC]*dT*dT*dT*dA[ms]kT*kT*kA*kA; antisense) [Compound 1809637]
[A] yes

[Q] Does the reported APOE RNA (% control) Spinal Cord of the following substance sit strictly below 30 % control? TezTeoGeoGksTdsGdzAdzAdzTds^mCdsTdsTdsTdsAdzTksTksAesAesAes^mCe (antisense eT[ms]eTeGkG*dT*dG[ms]dA[ms]dA[ms]dT*d[5mC]*dT*dT*dT*dA[ms]kT*kT*eA*eA*eA*e[5mC]) [Compound No. 1809814]
[A] no

[Q] Does the reported APOE RNA (% control) Spinal Cord of the following substance sit strictly below 30 % control? 1693042: 5-10-5 MOE gapmer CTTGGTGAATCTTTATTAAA, linkages sssosszzzssssssssss (antisense e[5mC]*eT*eT*eGeG*dT*dG[ms]dA[ms]dA[ms]dT*d[5mC]*dT*dT*dT*dA*eT*eT*eA*eA*eA) [compound 1693042]
[A] no

[Q] Does the reported APOE RNA (% control) Spinal Cord of the following substance sit strictly below 30 % control? 1809691: mixed MOE/cEt gapmer CTTGGTGAATCTTTATTAA, sugar eeeekddddddddddkeek, linkages sosssszzzssssszoss (e[5mC]*eTeT*eG*kG*dT*dG[ms]dA[ms]dA[ms]dT*d[5mC]*dT*dT*dT*dA[ms]kTeT*eA*kA) [compound 1809691]
[A] yes

[Q] Does the reported APOE RNA (% control) Spinal Cord of the following substance sit strictly below 30 % control? 1652909: 5-10-5 MOE gapmer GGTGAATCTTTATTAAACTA, linkages soooszzzzssssssooss (antisense eG*eGeTeGeA*dA[ms]dT[ms]d[5mC][ms]dT[ms]dT*dT*dA*dT*dT*dA*eAeAe[5mC]*eT*eA) [compound 1652909]
[A] yes

[Q] Does the reported APOE RNA (% control) Spinal Cord of the following substance sit strictly below 30 % control? 1652916: 5-10-5 MOE gapmer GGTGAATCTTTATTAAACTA, linkages soooszzzsssssszooss (antisense eG*eGeTeGeA*dA[ms]dT[ms]d[5mC][ms]dT*dT*dT*dA*dT*dT*dA[ms]eAeAe[5mC]*eT*eA) [compound 1652916]
[A] no

[Q] Does the reported APOE RNA (% control) Spinal Cord of the following substance sit strictly below 30 % control? 1652898: 6-10-4 MOE gapmer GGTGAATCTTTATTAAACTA, linkages sooooossssssssssoss (antisense eG*eGeTeGeAeAdT*d[5mC]*dT*dT*dT*dA*dT*dT*dA*dA*eAe[5mC]*eT*eA) [compound 1652898]
[A] yes

[Q] Does the reported APOE RNA (% control) Spinal Cord of the following substance sit strictly below 30 % control? 1652908: 5-10-5 MOE gapmer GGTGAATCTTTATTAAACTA, linkages soooszzzsssssssooss (antisense eG*eGeTeGeA*dA[ms]dT[ms]d[5mC][ms]dT*dT*dT*dA*dT*dT*dA*eAeAe[5mC]*eT*eA) [compound 1652908]
[A] yes

[Q] Does the reported APOE RNA (% control) Spinal Cord of the following substance sit strictly below 30 % control? 1652902: 6-10-4 MOE gapmer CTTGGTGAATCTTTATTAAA, linkages sooooossssssssssoss (antisense e[5mC]*eTeTeGeGeTdG*dA*dA*dT*d[5mC]*dT*dT*dT*dA*dT*eTeA*eA*eA) [compound 1652902]
[A] yes

[Q] Does the reported APOE RNA (% control) Spinal Cord of the following substance sit strictly below 30 % control? 1693105: 6-10-4 MOE gapmer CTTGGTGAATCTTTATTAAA, linkages sosssszzzssssszssss (e[5mC]*eTeT*eG*eG*eT*dG[ms]dA[ms]dA[ms]dT*d[5mC]*dT*dT*dT*dA[ms]dT*eT*eA*eA*eA) [compound 1693105]
[A] no

[Q] Does the reported APOE RNA (% control) Spinal Cord of the following substance sit strictly below 30 % control? 1681020: 5-10-5 MOE gapmer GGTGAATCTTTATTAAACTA, linkages zsssszsssszzszssssz (antisense eG[ms]eG*eT*eG*eA*dA[ms]dT*d[5mC]*dT*dT*dT[ms]dA[ms]dT*dT[ms]dA*eA*eA*e[5mC]*eT[ms]eA) [compound 1681020]
[A] no

[Q] Does the reported APOE RNA (% control) Spinal Cord of the following substance sit strictly below 30 % control? 1681021: 5-10-5 MOE gapmer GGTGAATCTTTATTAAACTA, linkages zsssszsssszzssssssz (antisense eG[ms]eG*eT*eG*eA*dA[ms]dT*d[5mC]*dT*dT*dT[ms]dA[ms]dT*dT*dA*eA*eA*e[5mC]*eT[ms]eA) [compound 1681021]
[A] no

[Q] Does the reported APOE RNA (% control) Spinal Cord of the following substance sit strictly below 30 % control? 1693082: 6-10-4 MOE gapmer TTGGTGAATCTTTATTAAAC, linkages ssssoozzszssszsssss (eT*eT*eG*eG*eTeGdA[ms]dA[ms]dT*d[5mC][ms]dT*dT*dT*dA[ms]dT*dT*eA*eA*eA*e[5mC]) [compound 1693082]
[A] no
